- SYSTEM_TESTED: T1, CRBN, Q96SW2;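 further: pooled lentiviral library of zinc finger degron-EGFP fusions in mCherry-positive Jurkat cells, FACS-sorted after compound exposure, with degron abundance counted by next-generation sequencing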
- T1 chain: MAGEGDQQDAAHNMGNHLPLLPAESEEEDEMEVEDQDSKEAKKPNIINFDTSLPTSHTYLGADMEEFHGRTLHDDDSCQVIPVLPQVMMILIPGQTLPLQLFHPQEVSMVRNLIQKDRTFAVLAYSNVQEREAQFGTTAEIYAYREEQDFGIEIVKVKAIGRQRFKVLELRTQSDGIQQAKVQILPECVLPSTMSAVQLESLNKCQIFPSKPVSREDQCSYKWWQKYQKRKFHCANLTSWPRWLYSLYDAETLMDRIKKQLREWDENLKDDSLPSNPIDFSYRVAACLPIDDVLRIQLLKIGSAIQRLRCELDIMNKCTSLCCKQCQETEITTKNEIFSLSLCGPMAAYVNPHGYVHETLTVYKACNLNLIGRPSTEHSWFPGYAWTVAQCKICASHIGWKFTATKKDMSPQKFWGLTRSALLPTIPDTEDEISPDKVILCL
- TEST_PROTOCOL: log2 fold change of degron read counts, EGFP-low vs EGFP+ sorted cells (limma voom), compound-induced degradation; higher = more compound-induced degradation of the degron-EGFP fusion; degrons are variants of IKZF1/3 zinc finger 2; compound dose not given here
- CONDITION_NOTES: Jurkat; 18 h; compound: thalidomide
Whole data set: some 8,300 sequences, median “log2 fold change of degron read counts, EGFP-low vs EGFP+ sorted cells (limma voom), compound-induced degradation” near -1.1, cut for the highest 2% near 3.2. The list comes from a sample in which the highest values are over-represented; it also holds close analogues and randomly drawn sequences.
READOUT_TYPE: log2 fold change of degron read counts
Please state the value as a number alone, without comment.

FLCNVCGAAFTQKGNLLRHIKL [46F_47L_49N_50V_52G_53A_54A_55F_67L_, Q9UKT9]    -0.568
FNCNQCGRWFTQKGNLLRHIKL [46F_47N_49N_50Q_52G_53R_54W_55F_67L_, Q9UKT9]    -1.8
FACDQCGASFTQKGNLLRHIKL [46F_47A_49D_50Q_52G_53A_54S_55F_67L_, Q9UKT9]    -3.41

Kindly note the recorded log2 fold change of degron read counts for FICNICGAYFTQKGNLLRHIKL [46F_47I_49N_50I_52G_53A_54Y_55F_67L_, Q9UKT9] , which is 0.967

Short answer for FACPQCGAVFTQKGNLLRHIKL [46F_47A_49P_50Q_52G_53A_54V_55F_67L_, Q9UKT9] : log2 fold change of degron read counts was -1.43
